Just for reference, ChEMBL document CHEMBL5107959 is where these values come from.

biological target: Cannabinoid receptor 2 (Homo sapiens); test: Agonist activity at human CB2 receptor expressed in mouse AtT20 cells assessed as maximal agonist effect by measuring fluorescence at 10 uM incubated for 60 mins by FLIPR membrane potential assay relative to CP55940; type: functional, cell-based; conditions: filed as agonist
Sequence (P34972 whole entry): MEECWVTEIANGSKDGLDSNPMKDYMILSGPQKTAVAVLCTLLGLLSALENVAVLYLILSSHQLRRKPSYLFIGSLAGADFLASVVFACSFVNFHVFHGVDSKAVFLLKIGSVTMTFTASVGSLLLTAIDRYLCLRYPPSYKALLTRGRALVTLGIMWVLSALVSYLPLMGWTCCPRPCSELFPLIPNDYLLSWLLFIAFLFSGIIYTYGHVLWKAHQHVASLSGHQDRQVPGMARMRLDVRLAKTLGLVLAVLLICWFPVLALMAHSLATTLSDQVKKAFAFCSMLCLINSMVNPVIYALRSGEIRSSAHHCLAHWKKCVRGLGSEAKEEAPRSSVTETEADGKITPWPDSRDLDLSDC
# if value of Emax reaches 90%, tag MET; if it stays below, tag NOT MET

Here's what some known entries look like.
SMILES RECORD: CCCCn1cc(C(=O)N[C@H](C(N)=O)C(C)C)c2ccccc21
ASSIGNED CLASS: MET
//
SMILES RECORD: CCCCn1cc(C(=O)N[C@H](C(N)=O)C(C)C)c2cccnc21
ASSIGNED CLASS: MET
//
SMILES RECORD: CCCCn1nc(C(=O)N[C@H](C(N)=O)C(C)(C)C)c2ccccc21
ASSIGNED CLASS: MET
//
SMILES RECORD: CCCCn1nc(C(=O)N[C@@H](Cc2ccccc2)C(N)=O)c2ccccc21
ASSIGNED CLASS: MET

Is the recorded value of Emax equal to or greater than 90% for this molecule? CCCCCn1cc(C(=O)N[C@H](C(N)=O)C(C)(C)C)c2cccnc21 MET

Is the recorded value of Emax equal to or greater than 90% for this molecule? CCCCCn1cc(C(=O)c2cccc3ccccc23)c2ccccc21 NOT MET

Is the recorded value of Emax equal to or greater than 90% for this molecule? CCCCn1cc(C(=O)N[C@H](C(N)=O)C(C)(C)C)c2ccccc21 MET

Is the recorded value of Emax equal to or greater than 90% for this molecule? CCCCn1nc(C(=O)N[C@H](C(N)=O)C(C)C)c2ccccc21 MET

Is the recorded value of Emax equal to or greater than 90% for this molecule? CCCCCn1cc(C(=O)N[C@@H](Cc2ccccc2)C(N)=O)c2cccnc21 NOT MET

Is the recorded value of Emax equal to or greater than 90% for this molecule? CCCCn1cc(C(=O)N[C@H](C(N)=O)C(C)(C)C)c2cccnc21 MET

Is the recorded value of Emax equal to or greater than 90% for this molecule? CCCCCn1cc(C(=O)N[C@H](C(N)=O)C(C)C)c2cccnc21 MET

Is the recorded value of Emax equal to or greater than 90% for this molecule? CCCCn1cc(C(=O)N[C@@H](Cc2ccccc2)C(N)=O)c2cccnc21 NOT MET
